Source listed as patent US20140088085A1.

Molecular target: hTLR8 (Homo sapiens, UniProt Q9NR97)
Construct: host or cells: HEK293 cells stably transfected with hTLR8
Sequence (Q9NR97 27-1041): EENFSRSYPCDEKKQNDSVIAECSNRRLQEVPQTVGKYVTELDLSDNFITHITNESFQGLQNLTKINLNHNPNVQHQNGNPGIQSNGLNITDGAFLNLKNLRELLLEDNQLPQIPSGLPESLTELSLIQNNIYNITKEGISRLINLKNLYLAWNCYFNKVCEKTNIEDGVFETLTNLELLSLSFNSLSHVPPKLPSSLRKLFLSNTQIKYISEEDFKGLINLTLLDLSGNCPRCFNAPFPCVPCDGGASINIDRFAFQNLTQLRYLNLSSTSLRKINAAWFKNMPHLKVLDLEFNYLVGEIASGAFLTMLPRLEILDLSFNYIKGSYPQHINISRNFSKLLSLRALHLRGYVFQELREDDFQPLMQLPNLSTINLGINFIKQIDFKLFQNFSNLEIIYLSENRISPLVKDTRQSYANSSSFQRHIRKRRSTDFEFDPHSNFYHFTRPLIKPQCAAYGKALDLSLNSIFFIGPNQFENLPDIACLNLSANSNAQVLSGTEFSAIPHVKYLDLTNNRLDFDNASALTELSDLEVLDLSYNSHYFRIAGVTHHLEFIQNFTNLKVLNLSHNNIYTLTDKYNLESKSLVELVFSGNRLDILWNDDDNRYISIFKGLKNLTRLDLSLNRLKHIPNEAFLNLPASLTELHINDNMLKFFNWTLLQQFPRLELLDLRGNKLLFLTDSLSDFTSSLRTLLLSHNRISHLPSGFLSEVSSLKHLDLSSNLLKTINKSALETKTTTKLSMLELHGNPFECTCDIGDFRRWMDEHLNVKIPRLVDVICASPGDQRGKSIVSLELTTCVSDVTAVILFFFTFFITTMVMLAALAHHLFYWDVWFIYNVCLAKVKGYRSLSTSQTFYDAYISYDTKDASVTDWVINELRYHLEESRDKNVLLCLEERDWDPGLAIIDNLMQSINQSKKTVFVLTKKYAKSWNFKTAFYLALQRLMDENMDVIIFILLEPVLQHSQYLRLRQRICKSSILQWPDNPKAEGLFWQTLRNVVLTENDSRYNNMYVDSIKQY
Assay: HEK-293 hTLR8 transfectant NF-κB SEAP reporter antagonist assay
Type: cell-based
Details: agonist VTX-378 at 0.5 μM; read-out: IC50, nM, vs. VTX-378 0.5 μM
Experimental: The HEK-293 hTLR transfectant assay employs HEK293 cells stably transfected with various hTLRs and transiently co-transfected with a plasmid containing an NF-κB driven secreted embryonic alkaline phosphate (SEAP) reporter gene. […] Reporter gene activity is then measured using a spectrophotometric assay. […] In a typical assay, 50,000 HEK239 hTLR8 cells are seeded per culture well and transiently transfected with the SEAP reporter gene. […] Antagonists are also evaluated for activity in the absence of agonist. […]
The entries below are paired with their reported IC50.

CCOC(=O)C1=Cc2cc(-c3ccc(C(=O)N4CCCC4)cc3)ccc2N=C(N)C1C (stereo not drawn) = < 1000 nM

I am curious: what IC50 value has been reported for CCOC(=O)C1=Cc2cc(-c3ccc(C(=O)N4CCCC4)cc3)ccc2N=C(N)C12CC2 ?
< 1000 nM

I am curious: what IC50 value has been reported for CCOC(=O)C1=Cc2cc(-c3ccc(C(=O)N4CCCC4)cc3)ccc2N=C(N)C1(C)C ?
< 1000 nM
